Reported IC50 by item:
- STUDY TARGET: UniProtKB Q05397
- PROCEDURE DETAILS: PTK2 Enzyme Test (DELFIA assay, poly-Glu-Tyr substrate)
- CONDITION INFO: active PTK2 enzyme, 50 μM ATP in ATP Mix, 1 h pre-incubation
ENDPOINT NAME: IC50

>>> df
                                    molecule  measured_value
 0  CNC(=O)c1ccc(Nc2ncc(C(F)(F)F)c(NCc3ccc(C)cc3N(C)S(C)(=O)=O)n2)c(OC)c1 [Example 69]            1 nM
 1  COc1cc(C(=O)NC2CC(C)(C)N(C)C(C)(C)C2)ccc1Nc1ncc(C(F)(F)F)c(NCc2ccc(C)cc2N(C)S(C)(=O)=O)n1 [Example 11]            4 nM
 2  COC(=O)Nc1cc(OC)c(Nc2ncc(C(F)(F)F)c(NCc3ccc(C)cc3N(C)S(C)(=O)=O)n2)cc1C [Example 124]            5 nM
 3  COc1cc(C(=O)NC2CCN(C)CC2)c(Cl)cc1Nc1ncc(C(F)(F)F)c(NCc2ccc(C)cc2N(C)S(C)(=O)=O)n1 [Example 78]            4 nM
 4  COc1cc(CNC2CCC2)ccc1Nc1ncc(C(F)(F)F)c(NCc2ccc(C)cc2N(C)S(C)(=O)=O)n1 [Example 61]            2 nM
 5  COc1cc(C(N)=O)c(Br)cc1Nc1ncc(C(F)(F)F)c(NCc2ccc(C)cc2N(C)S(C)(=O)=O)n1 [Example 34]            3 nM
 6  COc1cc(C(=O)NC2CCN(C3CCCCC3)CC2)ccc1Nc1ncc(C(F)(F)F)c(NCc2ccc(C)cc2N(C)S(C)(=O)=O)n1 [Example 16]            4 nM
 7  CCc1cc(C(=O)NC2CCN(CC)CC2)ccc1Nc1ncc(C(F)(F)F)c(NCc2ccc(C)cc2N(C)S(C)(=O)=O)n1 [Example 101]            2 nM
 8  COc1ccc(CNc2nc(Nc3ccc(NC(C)=O)c(C)c3)ncc2C(F)(F)F)c(N(C)S(C)(=O)=O)c1 [Example 118]            1 nM
 9  COc1cc(CN(C)C)ccc1Nc1ncc(C(F)(F)F)c(NCc2ccc(F)cc2N(C)S(C)(=O)=O)n1 [Example 5]         0.86 nM
10  COc1cc(NC(C)=O)c(C)cc1Nc1ncc(C(F)(F)F)c(NCc2ccc(C)cc2N(C)S(C)(=O)=O)n1 [Example 68]            2 nM
11  COc1cc(C(=O)NC2CCN(C3CC3)CC2)ccc1Nc1ncc(C(F)(F)F)c(NCc2ccc(C)cc2N(C)S(C)(=O)=O)n1 [Example 38]            4 nM
12  Cc1ccc(CNc2nc(Nc3ccc(C(=O)N[C@H]4CC[C@H](N5CCOCC5)CC4)cc3F)ncc2C(F)(F)F)c(N(C)S(C)(=O)=O)c1 [Example 92]            1 nM
13  COc1ccc(CNc2nc(Nc3cc(F)c(C(=O)NC4CCN(C)CC4)cc3OC)ncc2C(F)(F)F)c(N(C)S(C)(=O)=O)c1 [Example 40]            1 nM

* * *

A collection of compounds and their measured pIC50
- STUDY TARGET: UniProt Q05397
- PROCEDURE DETAILS: PTK2 Enzyme Test (DELFIA assay, poly-Glu-Tyr substrate)
- CONDITION INFO: active PTK2 enzyme, 50 μM ATP in ATP Mix, 1 h pre-incubation
pIC50: −log10 of the molar value.
ENDPOINT NAME: pIC50

>>> df
                                test_smiles    study_target  endpoint_name  measured_value
0  COc1cc(CNC2CC2)ccc1Nc1ncc(C(F)(F)F)c(NCc2ccc(C)cc2N(C)S(C)(=O)=O)n1  UniProt Q05397          pIC50            8.52
1  CCN1CCC(NC(=O)c2ccc(Nc3ncc(C(F)(F)F)c(NCc4ccc(C)cc4N(C)S(C)(=O)=O)n3)c(OC)c2)CC1  UniProt Q05397          pIC50            8.70
2  COc1cc(CNC2CCCC2)ccc1Nc1ncc(C(F)(F)F)c(NCc2ccc(C)cc2N(C)S(C)(=O)=O)n1  UniProt Q05397          pIC50            8.52
3  COc1cc(N2CCN(C3COC3)CC2)ccc1Nc1ncc(C(F)(F)F)c(NCc2ccc(F)cc2N(C)S(C)(=O)=O)n1  UniProt Q05397          pIC50            8.52

* * *

- STUDY TARGET: PTK2-phosphorylation at tyrosine 397 (pY397) (Homo sapiens, UniProt Q05397)
- Construct: endogenous in cells
- Sequence (Q05397 whole entry): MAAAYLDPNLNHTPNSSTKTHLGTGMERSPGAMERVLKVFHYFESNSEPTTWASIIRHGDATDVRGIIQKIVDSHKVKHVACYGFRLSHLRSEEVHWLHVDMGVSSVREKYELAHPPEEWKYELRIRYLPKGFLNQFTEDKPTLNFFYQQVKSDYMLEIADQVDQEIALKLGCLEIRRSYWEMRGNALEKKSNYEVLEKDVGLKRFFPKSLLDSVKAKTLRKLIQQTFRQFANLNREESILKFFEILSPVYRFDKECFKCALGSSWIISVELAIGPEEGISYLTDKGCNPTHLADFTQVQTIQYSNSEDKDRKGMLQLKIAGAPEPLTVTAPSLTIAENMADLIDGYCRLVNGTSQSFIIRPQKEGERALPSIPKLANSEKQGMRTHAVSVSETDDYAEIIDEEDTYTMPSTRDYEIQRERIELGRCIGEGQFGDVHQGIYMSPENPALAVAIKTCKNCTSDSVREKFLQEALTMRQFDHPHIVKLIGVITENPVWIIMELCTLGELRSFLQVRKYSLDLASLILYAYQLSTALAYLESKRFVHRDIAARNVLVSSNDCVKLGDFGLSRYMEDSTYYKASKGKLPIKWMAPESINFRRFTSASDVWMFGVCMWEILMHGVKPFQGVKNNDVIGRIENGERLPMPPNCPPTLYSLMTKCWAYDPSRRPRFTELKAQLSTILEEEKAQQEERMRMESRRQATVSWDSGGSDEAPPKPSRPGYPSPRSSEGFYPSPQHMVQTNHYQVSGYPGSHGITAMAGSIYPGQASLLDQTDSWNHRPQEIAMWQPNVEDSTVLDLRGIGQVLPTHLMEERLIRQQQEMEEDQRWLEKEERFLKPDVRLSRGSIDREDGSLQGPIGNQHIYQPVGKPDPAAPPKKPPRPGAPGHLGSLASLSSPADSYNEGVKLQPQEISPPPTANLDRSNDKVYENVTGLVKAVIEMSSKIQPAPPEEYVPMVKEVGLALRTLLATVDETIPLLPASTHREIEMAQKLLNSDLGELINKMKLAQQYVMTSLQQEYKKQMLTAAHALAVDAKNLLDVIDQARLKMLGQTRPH
- PROCEDURE DETAILS: Phospho-PTK2 (pY397) Assay in PC-3 cells
- CONDITION INFO: PC-3 prostate carcinoma cells, 2 h incubation; read-out: PC3pPTK2 Y397 EC50
pEC50: −log10 of the molar value.
Attribute: pEC50
ENDPOINT NAME: pEC50

                                    molecule  measured_value
 0  COc1cc(CN2CCCC2)ccc1Nc1ncc(C(F)(F)F)c(NCc2ccc(C)cc2N(C)S(C)(=O)=O)n1            9.25
 1  COc1cc(C(=O)NC2CCC(N(C)C(C)C)CC2)ccc1Nc1ncc(C(F)(F)F)c(NCc2ccc(C)cc2N(C)S(C)(=O)=O)n1 (centres unmarked)            9.54
 2  COc1cc(NC(C)=O)c(C)cc1Nc1ncc(C(F)(F)F)c(NCc2ccc(C)cc2N(C)S(C)(=O)=O)n1            9.14
 3  COc1cc(C(=O)NC2CCN(C(C)C)CC2)ccc1Nc1ncc(C(F)(F)F)c(NCc2ccc(C)cc2N(C)S(C)(=O)=O)n1            9.74
 4  COc1cc(C(=O)NCCN2CCCCC2)ccc1Nc1ncc(C(F)(F)F)c(NCc2ccc(C)cc2N(C)S(C)(=O)=O)n1            9.66
 5  COc1cc(C(=O)N[C@@H]2CCCN(C3COC3)C2)ccc1Nc1ncc(C(F)(F)F)c(NCc2ccc(C)cc2N(C)S(C)(=O)=O)n1            8.52
 6  COc1cc(C(=O)NC[C@@H](C)N2CCCC2)ccc1Nc1ncc(C(F)(F)F)c(NCc2ccc(C)cc2N(C)S(C)(=O)=O)n1            9.89
 7  COc1cc(C(=O)NC2CCNCC2)ccc1Nc1ncc(C(F)(F)F)c(NCc2ccc(C)cc2N(C)S(C)(=O)=O)n1            9.00
 8  COc1cc(N2CCN(C)CC2)ccc1Nc1ncc(C(F)(F)F)c(NCc2ccc(C)cc2N(C)S(C)(=O)=O)n1            9.00
 9  COc1cc(CN(C)C)ccc1Nc1ncc(C(F)(F)F)c(NCc2ccc(F)cc2N(C)S(C)(=O)=O)n1            9.92
10  COc1cc(C(=O)N[C@@H]2CCCN(C3CCC3)C2)ccc1Nc1ncc(C(F)(F)F)c(NCc2ccc(C)cc2N(C)S(C)(=O)=O)n1            9.00
11  COc1cc(N2CCN(C3COC3)CC2)ccc1Nc1ncc(C(F)(F)F)c(NCc2ccc(F)cc2N(C)S(C)(=O)=O)n1            8.70
12  COc1cc(C(=O)NC2CCN(C3CC3)CC2)ccc1Nc1ncc(C(F)(F)F)c(NCc2ccc(C)cc2N(C)S(C)(=O)=O)n1            9.46
13  COc1cc(C(=O)NC2CCCN(C)C2)ccc1Nc1ncc(C(F)(F)F)c(NCc2ccc(C)cc2N(C)S(C)(=O)=O)n1 (centres unmarked)            9.85

* * *

Below, each entry is listed alongside its reported log10 EC50.
- STUDY TARGET: PTK2-phosphorylation at tyrosine 397 (pY397) (Homo sapiens, UniProt Q05397)
- Construct: endogenous in cells
- PROCEDURE DETAILS: Phospho-PTK2 (pY397) Assay in PC-3 cells
- CONDITION INFO: PC-3 prostate carcinoma cells, 2 h incubation; read-out: PC3pPTK2 Y397 EC50
- Description: This cellular test is used to determine the influence of PTK2-inhibitors on the state of the PTK2-phosphorylation at tyrosine 397 (pY397). PC-3 cells (prostate carcinoma, ATCC CRL-1435) are grown in cell culture flasks (175 cm^2) with F12 Kaighn's Medium (Gibco, No.: 21127) with the addition of 10% foetal calf serum (Invitrogen, No.: 16000-044). The cultures are incubated in the incubator at 37° C. and 5% CO2 and run twice a week. […]
ENDPOINT NAME: log10 EC50 (log10 of the value in nM)

>>> df
                                    compound  endpoint_name  measured_value
 0  COc1cc(Nc2ncc(C(F)(F)F)c(NCc3ccc(C)cc3N(C)S(C)(=O)=O)n2)ccc1NC(C)=O [Example 103]     log10 EC50            0.30
 1  COCCNC(=O)c1ccc(Nc2ncc(C(F)(F)F)c(NCc3ccc(C)cc3N(C)S(C)(=O)=O)n2)c(OC)c1 [Example 14]     log10 EC50           -0.77
 2  Cc1ccc(CNc2nc(Nc3ccc(C(=O)N[C@H]4CC[C@H](N5CCN(CC6CC6)CC5)CC4)cc3F)ncc2C(F)(F)F)c(N(C)S(C)(=O)=O)c1 [Example 91]     log10 EC50            0.30
 3  COc1cc(C(=O)NC2CCN(C)CC2)ccc1Nc1ncc(C(F)(F)F)c(NCc2ccc(C)cc2N(C)S(C)(=O)=O)n1 [Example 73]     log10 EC50           -0.11
 4  COc1cc(N2CCN(CC(=O)N(C)C)CC2)ccc1Nc1ncc(C(F)(F)F)c(NCc2ccc(C)cc2N(C)S(C)(=O)=O)n1 [Example 33]     log10 EC50           -0.52
 5  COc1cc(C(=O)N[C@@H]2CCN(C)C2)c(Cl)cc1Nc1ncc(C(F)(F)F)c(NCc2ccc(C)cc2N(C)S(C)(=O)=O)n1 [Example 58]     log10 EC50           -0.23
 6  COc1cc(C(=O)NCC2CCCO2)ccc1Nc1ncc(C(F)(F)F)c(NCc2ccc(C)cc2N(C)S(C)(=O)=O)n1 (stereo not shown) [Example 70]     log10 EC50           -0.13
 7  COc1cc(C(=O)N[C@@H]2CCCN(C)C2)ccc1Nc1ncc(C(F)(F)F)c(NCc2ccc(C)cc2N(C)S(C)(=O)=O)n1 [Example 102]     log10 EC50            0.30
 8  COc1cc(N2CCN(C3COC3)CC2)ccc1Nc1ncc(C(F)(F)F)c(NCc2ccc(C)cc2N(C)S(C)(=O)=O)n1 [Example 32]     log10 EC50           -0.52
 9  COc1cc(C(=O)NC2CCN(C(C)=O)CC2)ccc1Nc1ncc(C(F)(F)F)c(NCc2ccc(C)cc2N(C)S(C)(=O)=O)n1 [Example 9]     log10 EC50           -0.85
10  COc1cc(C(=O)N[C@@H]2CN3CCC2CC3)ccc1Nc1ncc(C(F)(F)F)c(NCc2ccc(C)cc2N(C)S(C)(=O)=O)n1 [Example 74]     log10 EC50           -0.10
11  COc1cc(C(=O)NC2CCN(c3ccccc3)CC2)ccc1Nc1ncc(C(F)(F)F)c(NCc2ccc(C)cc2N(C)S(C)(=O)=O)n1 [Example 55]     log10 EC50           -0.25
12  COc1cc(C(=O)NC2CCC(NS(C)(=O)=O)CC2)ccc1Nc1ncc(C(F)(F)F)c(NCc2ccc(C)cc2N(C)S(C)(=O)=O)n1 (stereo not shown) [Example 27]     log10 EC50           -0.57
